# SYSTEM: T1, Avi/His-HuIL18BPa (recombinant human IL-18BP isoform A with Avi and poly-His tags) (human, biotinylated with BirA on the Avi tag in some assays)
# T1 chain: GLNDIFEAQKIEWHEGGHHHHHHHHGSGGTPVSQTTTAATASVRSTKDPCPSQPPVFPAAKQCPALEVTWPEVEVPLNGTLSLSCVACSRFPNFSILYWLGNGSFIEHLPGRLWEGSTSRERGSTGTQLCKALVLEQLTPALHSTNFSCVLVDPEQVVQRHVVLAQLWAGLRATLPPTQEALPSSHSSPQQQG
# TEST DESCRIPTION: cell-based or functional assay
MEASUREMENT LABEL: Fold change of IFNγ at 10 µg/ml vs baseline, human PBMC

Sample records with Fold change of IFNγ at 10 µg/ml vs baseline, human PBMC:
anti-IL18BP antibody BP-03 (antibody, human IgG1, V domains shown) VH: EVQLQQSGPELVKPGASVKIPCKASGYTFTDYNMDWVKQSHGKSLEWIGNINTDNGGTVYNQKFKGKATLTVDQSSSTAYMELRSLTSEDTAVYYCARSDTTVVASRYYAMDYWGQGTSVTVSS VL: DIVLTQSPASLAMSLGKRATISCRASESVSIIGTNLIHWYQQKPGQPPKLLIYHASNLETGVPARFSGSGSRTDFTLTIDPVEEDDVAIYYCLQSRKIPPTFGGGTKLEIK ... 11.3 fold
anti-IL18BP antibody BP-05 (antibody, human IgG1, V domains shown) VH: EVQLQQSGPELVKPGASVKIPCKASGYTFTDYNMDWVKQSHGKSLEWIGNINTNNGGTVYNQKFKDKATLTVDKSSSTAYMELRSLTSEDTAVYYCARSDTTVVASRYYALDYWGQGTSVTVSS VL: DIVLTQSPASLAMSLGKRATISCRASESVSIIGTDLIHWYQQKPGQPPKLLIYHASNLETGVPARFSGSGSRTDFTLTIDPVEEDDVAIYYCLQSRKIPPTFGGGTKLEIK ... 16.4 fold

So what does the record say about Fold change of IFNγ at 10 µg/ml vs baseline, human PBMC for anti-IL18BP antibody BP-04 (antibody, V domains shown, also called BP-04 (hybridoma); BP-04 (parental)) VH: HVHLHQSGAELVRPGVSVKISCRGSGYTFTDYDVHWVKQSHAKSLEWIGVISTYYGDVGYNQEFKGKATMTLDKSSSTSYLELARLTSEDSAIYYCARSGTYYYGTRESHALDYWGQGTSVTVSS VL: DIQMTQSPASLSVSVGETVTITCRTSDNVYSNLAWYQQKQGKSPQLLVYGAINLADGVPSRFSGSGSDTQYSLKINNLQSEDFGSYYCQHFWGNPYTFGGGTKLEIK ? 19 fold
